Consider the following molecules; for each one, report its IC50.
target: Nucleic Acid; test: Binding affinity to HIV1 TAR RNA bulgeless tetraloop mutant at pH 6.8 by ethidium bromide displacement assay; assay type: nucleic-acid assay, Human immunodeficiency virus 1
Your answer should be a plain number; it is taken to be in nM.

# return recorded IC50 for entry NC[C@@H]1O[C@H](O[C@H]2[C@@H](O)[C@H](O[C@@H]3[C@@H](O)[C@H](N)C[C@H](N)[C@H]3O[C@H]3O[C@H](CN)[C@@H](O)[C@H](O)[C@H]3N)O[C@@H]2Cn2cc(COCCCCCCCCCCCCOCc3cn(C[C@H]4O[C@@H](O[C@@H]5[C@@H](O)[C@H](N)C[C@H](N)[C@H]5O[C@H]5O[C@H](CN)[C@@H](O)[C@H](O)[C@H]5N)[C@H](O)[C@@H]4O[C@H]4O[C@@H](CN)[C@@H](O)[C@H](O)[C@H]4N)nn3)nn2)[C@H](N)[C@@H](O)[C@@H]1O 158

Consider the molecule NC[C@@H]1O[C@H](O[C@H]2[C@@H](O)[C@H](O[C@@H]3[C@@H](O)[C@H](N)C[C@H](N)[C@H]3O[C@H]3O[C@H](CN)[C@@H](O)[C@H](O)[C@H]3N)O[C@@H]2Cn2cc(CCCc3cn(C[C@H]4O[C@@H](O[C@@H]5[C@@H](O)[C@H](N)C[C@H](N)[C@H]5O[C@H]5O[C@H](CN)[C@@H](O)[C@H](O)[C@H]5N)[C@H](O)[C@@H]4O[C@H]4O[C@@H](CN)[C@@H](O)[C@H](O)[C@H]4N)nn3)nn2)[C@H](N)[C@@H](O)[C@@H]1O and give its recorded IC50. 146

* * *

tested on: Nucleic Acid; test: Binding affinity to HIV1 TAR RNA U3 bulge mutant at assessed as association constant at pH 6.8 by ethidium bromide displacement assay based Scatchard analysis method; type: nucleic-acid assay; settings: Human immunodeficiency virus 1
Measure Name: K (×10⁶ /M)
Could you give me the number in ×10⁶ /M? Just the number is fine.

Return K (reported value) for this molecule: NC[C@@H]1O[C@H](O[C@H]2[C@@H](O)[C@H](O[C@@H]3[C@@H](O)[C@H](N)C[C@H](N)[C@H]3O[C@H]3O[C@H](CN)[C@@H](O)[C@H](O)[C@H]3N)O[C@@H]2Cn2cc(CCCCc3cn(C[C@H]4O[C@@H](O[C@@H]5[C@@H](O)[C@H](N)C[C@H](N)[C@H]5O[C@H]5O[C@H](CN)[C@@H](O)[C@H](O)[C@H]5N)[C@H](O)[C@@H]4O[C@H]4O[C@@H](CN)[C@@H](O)[C@H](O)[C@H]4N)nn3)nn2)[C@H](N)[C@@H](O)[C@@H]1O 2.1

In one line, give reported K of the entry NC[C@@H]1O[C@H](O[C@H]2[C@@H](O)[C@H](O[C@@H]3[C@@H](O)[C@H](N)C[C@H](N)[C@H]3O[C@H]3O[C@H](CN)[C@@H](O)[C@H](O)[C@H]3N)O[C@@H]2Cn2cc(COCCCCCCCCCCCCOCc3cn(C[C@H]4O[C@@H](O[C@@H]5[C@@H](O)[C@H](N)C[C@H](N)[C@H]5O[C@H]5O[C@H](CN)[C@@H](O)[C@H](O)[C@H]5N)[C@H](O)[C@@H]4O[C@H]4O[C@@H](CN)[C@@H](O)[C@H](O)[C@H]4N)nn3)nn2)[C@H](N)[C@@H](O)[C@@H]1O . 1.5
